All figures here come from patent US11020399B2.

target: PI3kδ (Homo sapiens, UniProt O00329); test: Fluorescent (HTRF) determination of PI3 kinase enzyme activity, PI3Kδ; format: biochemical; conditions: 300 nM (Examples 1-59)
Sequence (O00329 whole entry): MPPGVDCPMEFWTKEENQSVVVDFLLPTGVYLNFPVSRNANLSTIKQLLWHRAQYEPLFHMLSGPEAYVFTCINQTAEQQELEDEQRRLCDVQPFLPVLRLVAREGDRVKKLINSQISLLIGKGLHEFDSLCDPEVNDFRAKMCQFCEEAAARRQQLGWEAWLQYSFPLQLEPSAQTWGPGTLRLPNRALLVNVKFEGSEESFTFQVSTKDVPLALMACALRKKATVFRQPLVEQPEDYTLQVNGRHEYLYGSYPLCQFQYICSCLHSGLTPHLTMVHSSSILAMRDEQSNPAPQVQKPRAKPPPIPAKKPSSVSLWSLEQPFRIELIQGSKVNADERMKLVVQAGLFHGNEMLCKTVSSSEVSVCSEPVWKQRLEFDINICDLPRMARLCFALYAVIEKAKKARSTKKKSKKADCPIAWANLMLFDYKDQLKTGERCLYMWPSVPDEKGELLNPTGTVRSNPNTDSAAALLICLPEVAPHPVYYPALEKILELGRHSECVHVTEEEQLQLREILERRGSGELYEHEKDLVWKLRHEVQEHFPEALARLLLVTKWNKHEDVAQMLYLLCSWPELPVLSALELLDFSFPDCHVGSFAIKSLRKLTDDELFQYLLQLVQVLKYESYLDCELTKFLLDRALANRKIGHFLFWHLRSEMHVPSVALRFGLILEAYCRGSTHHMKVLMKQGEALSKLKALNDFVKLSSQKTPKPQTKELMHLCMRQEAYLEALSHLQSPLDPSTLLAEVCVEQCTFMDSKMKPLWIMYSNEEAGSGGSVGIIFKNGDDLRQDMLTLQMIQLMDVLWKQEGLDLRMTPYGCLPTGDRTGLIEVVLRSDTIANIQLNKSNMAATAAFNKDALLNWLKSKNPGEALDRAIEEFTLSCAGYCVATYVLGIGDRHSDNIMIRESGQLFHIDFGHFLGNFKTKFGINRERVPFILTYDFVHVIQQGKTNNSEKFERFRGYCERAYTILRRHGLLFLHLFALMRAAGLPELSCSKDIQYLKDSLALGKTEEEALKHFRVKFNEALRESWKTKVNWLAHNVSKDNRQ
Sequence (P27986 whole entry partner): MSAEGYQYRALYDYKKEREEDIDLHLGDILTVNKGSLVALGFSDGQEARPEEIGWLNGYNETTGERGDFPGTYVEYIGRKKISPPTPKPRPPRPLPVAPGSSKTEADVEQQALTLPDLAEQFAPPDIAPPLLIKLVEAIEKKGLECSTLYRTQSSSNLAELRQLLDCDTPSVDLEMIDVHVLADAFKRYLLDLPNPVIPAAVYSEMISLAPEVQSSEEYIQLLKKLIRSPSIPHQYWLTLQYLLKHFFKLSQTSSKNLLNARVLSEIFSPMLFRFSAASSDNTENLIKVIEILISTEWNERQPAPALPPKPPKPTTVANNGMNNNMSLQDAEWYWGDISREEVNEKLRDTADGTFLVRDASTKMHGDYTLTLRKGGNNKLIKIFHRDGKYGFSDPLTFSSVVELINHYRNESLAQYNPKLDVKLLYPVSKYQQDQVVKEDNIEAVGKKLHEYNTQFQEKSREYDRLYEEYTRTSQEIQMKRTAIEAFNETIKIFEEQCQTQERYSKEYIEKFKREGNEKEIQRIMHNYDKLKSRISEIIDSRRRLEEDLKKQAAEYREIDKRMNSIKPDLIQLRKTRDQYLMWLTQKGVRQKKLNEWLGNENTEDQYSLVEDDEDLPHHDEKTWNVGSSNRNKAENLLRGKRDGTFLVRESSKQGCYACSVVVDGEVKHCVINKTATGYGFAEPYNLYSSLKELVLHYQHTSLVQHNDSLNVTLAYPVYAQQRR
quantityKind: inhibition at 0.3 µM

compound	reportedValue
CC(c1oc2cccc(F)c2c(=O)c1-c1cccc(F)c1)n1cnc2c(N)ncnc21 (stereo not shown)	50 to 75%
CC(C)NS(=O)(=O)c1ccc(-c2nn(C(C)c3oc4cccc(F)c4c(=O)c3-c3cccc(F)c3)c3ncnc(N)c23)cc1 (stereo not shown)	0 to 25%
CC(c1oc2cccc(F)c2c(=O)c1-c1cccc(F)c1)n1nc(-c2ccc(S(=O)(=O)NC3CC3)cc2)c2c(N)ncnc21 (stereo not shown)	0 to 25%
Cc1nn(C(C)c2oc3cccc(F)c3c(=O)c2-c2cccc(F)c2)c2ncnc(N)c12 (stereo not shown)	50 to 75%
COc1cccc2oc(Cn3cnc4c(N)ncnc43)c(-c3cccc(F)c3)c(=O)c12	50 to 75%
CC(C)Nc1ccc(-c2nn(C(C)c3oc4cccc(F)c4c(=O)c3-c3cccc(F)c3)c3ncnc(N)c23)cc1F (stereo not shown)	75 to 100%

Please look at the following compound next.
Provide only the value of recorded inhibition at 0.3 µM for CC(C)Oc1ccc(-c2nn(C(C)c3oc4cccc(F)c4c(=O)c3-c3cccc(F)c3)c3ncnc(N)c23)cn1 (stereo not shown) 50 to 75%
